Biological target: BK1 receptor (Oryctolagus cuniculus, UniProt P48748)
Sequence (P48748 whole entry): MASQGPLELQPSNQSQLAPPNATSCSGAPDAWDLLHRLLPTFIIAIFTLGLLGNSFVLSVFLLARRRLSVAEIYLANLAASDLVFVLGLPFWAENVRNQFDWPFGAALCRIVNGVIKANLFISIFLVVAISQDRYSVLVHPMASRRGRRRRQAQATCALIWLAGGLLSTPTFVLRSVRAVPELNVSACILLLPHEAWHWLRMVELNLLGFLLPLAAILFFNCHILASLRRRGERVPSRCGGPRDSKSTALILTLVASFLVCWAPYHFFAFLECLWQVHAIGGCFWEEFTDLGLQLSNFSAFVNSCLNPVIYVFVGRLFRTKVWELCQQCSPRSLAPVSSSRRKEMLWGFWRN
Experiment: rabbit aorta in vitro, reversal of des-Arg^9 -BK contraction
Parameters: on rabbit aorta (BK1 -receptor) in vitro; from tissue; host or cells: rabbit aorta
Conditions: negative log of molar concentration causing 50% reversal of des-Arg^9 -BK (10^-7 M) contraction
Square brackets hold non-standard residues; d marks the D form. Peptide text beside a SMILES is read from it. Oic = O=C(O)[C@@H]1C[C@@H]2CCCC[C@@H]2N1; Hyp = O=C(O)[C@@H]1C[C@@H](O)CN1; dTic = O=C(O)[C@H]1Cc2ccccc2CN1; 2Thi = N[C@@H](Cc1cccs1)C(=O)O
experimental endpoint: BK1 rabbit aorta IC50

compound="CC(C)C[C@H](NC(=O)[C@@H]1CCCN1C(=O)[C@H](CO)NC(=O)[C@H](Cc1ccccc1)NC(=O)CNC(=O)[C@@H]1C[C@@H](O)CN1C(=O)[C@@H]1CCCN1C(=O)[C@H](CS)NC(=O)[C@@H](N)CCCCN)C(=O)O [CP-0374, K--C--P--J--G--F--S--P--L] (HELM PEPTIDE1{K.C.P.[Hyp].G.F.S.P.L}$$$$V2.0; N-terminus and C-terminus assumed)" reading=6.5
compound="CC(C)C[C@H](NC(=O)[C@@H]1CCCN1C(=O)[C@H](CO)NC(=O)[C@H](Cc1ccccc1)NC(=O)CNC(=O)[C@@H]1C[C@@H](O)CN1C(=O)[C@@H]1CCCN1C(=O)[C@H](CCCCN)NC(=O)[C@H](N)CCCNC(=N)N)C(=O)O [CP-0388, D R--K--P--J--G--F--S--P--L] (HELM PEPTIDE1{[dR].K.P.[Hyp].G.F.S.P.L}$$$$V2.0; N-terminus and C-terminus assumed)" reading=6.5
compound="CC(C)C[C@H](NC(=O)[C@@H](Cc1ccccc1)NC(=O)[C@H](CO)NC(=O)[C@H](Cc1ccccc1)NC(=O)CNC(=O)[C@@H]1C[C@@H](O)CN1C(=O)[C@@H]1CCCN1C(=O)[C@H](CCCNC(=N)N)NC(=O)[C@H](N)CCCNC(=N)N)C(=O)O [CP-0253, D R--R--P--J--G--F--S--D F--L] (HELM PEPTIDE1{[dR].R.P.[Hyp].G.F.S.[dF].L}$$$$V2.0; N-terminus and C-terminus assumed)" reading=6.9
compound="N=C(N)NCCC[C@@H](N)C(=O)N[C@@H](CCCNC(=N)N)C(=O)N1CCC[C@H]1C(=O)N1C[C@H](O)C[C@H]1C(=O)NCC(=O)N[C@@H](Cc1ccccc1)C(=O)N[C@@H](CO)C(=O)N1Cc2ccccc2C[C@@H]1C(=O)N1[C@H](C(=O)O)C[C@@H]2CCCC[C@@H]21 [CP-0267, D R--R--P--J--G--F--S--D Tic--Oic] (HELM PEPTIDE1{[dR].R.P.[Hyp].G.F.S.[O=C([C@H]1Cc2ccccc2CN1[*:1])[*:2]].[O=C(O)[C@@H]1C[C@@H]2CCCC[C@@H]2N1[*:1]]}$$$$V2.0; N-terminus and C-terminus assumed)" reading=7.5
compound="N=C(N)NCCC[C@@H](N)C(=O)N[C@@H](CCCNC(=N)N)C(=O)N1CCC[C@H]1C(=O)N1C[C@H](O)C[C@H]1C(=O)NCC(=O)N[C@@H](Cc1cccs1)C(=O)N[C@@H](CO)C(=O)N1Cc2ccccc2C[C@@H]1C(=O)N1[C@H](C(=O)O)C[C@@H]2CCCC[C@@H]21 [CP-0345, D R--R--P--J--G--Thi--S--D Tic--Oic] (H-[dR]RP[Hyp]G[2Thi]S[dTic][Oic]-OH; N-terminus and C-terminus assumed)" reading=7.1
